Assay Info: AUC (0 to 24 hrs) in BALB/c mouse at 10 mg/kg, po
Format: ADME, organism-based
Design: time < 24 hr, dose 10 mg/kg, route oral
Stated Conditions: in vivo

{"columns": ["Compound", "AUC(0-t) at 24 h / µM·h"],
 "data": [
  ["N#CC(C(=O)NCC(=O)NC1CC1)c1nc2ccc(-c3ccccc3)cc2s1 (racemic)", 18]
]}

* * *

Assay Info: Cmax in BALB/c mouse at 10 mg/kg, po
Type: ADME, organism-based
Set-up: dose 10 mg/kg, route oral
Stated Conditions: in vivo

{"columns": ["Compound", "Cmax"],
 "data": [
  ["N#CC(C(=O)NCC(=O)NC1CC1)c1nc2ccc(-c3ccccc3)cc2s1 (racemic)", "6.6 µM"]
]}
